- STUDY TARGET: T1, human BCMA on the cell membrane surface (H929 and RPMI8226 cells) (human, UniProt Q02223 1-184)
- T1 construct: whole, on cells; also called BCMA antigen on the cell membrane surface; BCMA-expressing cell line H929
- T1 sequence (looked up): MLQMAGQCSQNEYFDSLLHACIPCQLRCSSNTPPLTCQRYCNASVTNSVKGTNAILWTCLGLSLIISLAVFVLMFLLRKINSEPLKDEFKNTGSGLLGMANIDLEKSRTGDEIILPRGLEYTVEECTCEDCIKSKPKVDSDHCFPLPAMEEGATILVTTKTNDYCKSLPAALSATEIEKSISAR
- PROTOCOL: flow cytometry on RPMI8226 cells, scFv-Fc
Reported values of percentage of binding for individual entries
Kindly provide the numeric value in % only, without the unit symbol.

- B10.3 scFv-Fc (Fc fusion, also called mutant B10.3; not shown: Fc (scFv-Fc)) scFv: QVQLQQSGAEVKKPGSSVKVSCKASGGTFSKSAIQWVRQAPGQGLEWMGGVIPIFGTANYAQKFQGRVTITADESTSTAYMELSSLRSEDTAVYYCARGWYLDLWGRGTLVTVSSASTGGSSRSSSSGGGGSGGGGLPVLTQPPSASGTPGQRVTISCSGSSNNIGGYSVNWYQQFPGTAPKLLIYRNNQRPSGVPDRFSGSKSGASASLAISGLQSEDEADYYCAAWDDSVIGWLFGTGTQLTVL: 54.9

Value of percentage of binding reported for the binder B10 scFv-Fc protein (B10 parental antibody) (Fc fusion, scFv gene fused with the Fc gene of human IgG4 (plasmid pFH-B10); also called clone B10; scFv-Fc protein of B10; not shown: Fc of human IgG4 from vector pFH) scFv: QVQLQQSGAEVKKPGSSVKVSCKASGGTFSSYAISWVRQAPGQGLEWMGGIIPIFGTANYAQKFQGRVTITADESTSTAYMELSSLRSEDTAVYYCARGWYFDLWGRGTLVTVSSASTGGSSRSSSSGGGGSGGGGLPVLTQPPSASGTPGQRVTISCSGSSSNIGGYSVNWYQQFPGTAPKLLIYRNNQRPSGVPDRFSGSKSGASASLAISGLQSEDEADYYCAAWDDSLIGYVFGTGTQLTVL is 5.54

So, B10.9 scFv-Fc (Fc fusion, also called mutant B10.9; not shown: Fc (scFv-Fc)) scFv: QVQLQQSGAEVKKPGSSVKVSCKASGGTFSKSAIQWVRQAPGQGLEWMGGVIPIFGTANYAQKFQGRVTITADESTSTAYMELSSLRSEDTAVYYCARGWYLDLWGRGTLVTVSSASTGGSSRSSSSGGGGSGGGGLPVLTQPPSASGTPGQRVTISCSGSSNNIGGYSVNWYQQFPGTAPKLLIYRNNQRPSGVPDRFSGSKSGASASLAISGLQSEDEADYYCAAWDDSEIGWLFGTGTQLTVL ? Its percentage of binding was 42.9
